test system: human recombinant CK2α1 (Homo sapiens)
Construct: purchased Promega V4482
Sequence (P68400 whole entry): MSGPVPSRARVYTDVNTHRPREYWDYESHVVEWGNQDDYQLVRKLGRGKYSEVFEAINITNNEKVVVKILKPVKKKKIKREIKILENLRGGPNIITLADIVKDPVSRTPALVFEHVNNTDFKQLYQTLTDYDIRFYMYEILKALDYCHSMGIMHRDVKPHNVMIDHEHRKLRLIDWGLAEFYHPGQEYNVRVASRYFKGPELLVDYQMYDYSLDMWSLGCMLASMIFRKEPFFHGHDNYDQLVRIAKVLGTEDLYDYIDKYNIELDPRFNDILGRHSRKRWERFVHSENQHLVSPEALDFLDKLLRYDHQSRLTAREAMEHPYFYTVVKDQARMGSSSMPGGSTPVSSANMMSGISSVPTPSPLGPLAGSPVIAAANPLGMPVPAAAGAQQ
method notes: CK2 ADP-Glo kinase assay
Format: biochemical
assay context: dose-response study of CK2 inhibition
metric name: Hill Coefficient
One number for each entry.

compound="CCOC(=O)c1cnn2c1NC(CC)=C([N+](=O)[O-])C2c1ccc([N+](=O)[O-])cc1 (stereo not shown)" metric_name="Hill Coefficient" measured_value=−1.369
compound="CCC1=C([N+](=O)[O-])C(c2cccs2)n2ncc(C#N)c2N1 (stereo not shown)" metric_name="Hill Coefficient" measured_value=−1.183
compound="CSc1nn2c(c1C#N)NC=C([N+](=O)[O-])C2c1ccccc1 (stereo not shown)" metric_name="Hill Coefficient" measured_value=−2.947

Now for another entry.
Enquiry: Entry CCC1=C([N+](=O)[O-])C(c2ccc([N+](=O)[O-])cc2)n2ncc(C#N)c2N1 (stereo not shown) has what Hill Coefficient?
Return: −1.566
